Let's look at some molecules and their measured IC50.
- target_of_assay: KRAS G12D/RAF1 (Homo sapiens, UniProt P01116, G12D)
- Construct: His6-MBP (N, cleaved yes); made in house; host or cells: E. coli
- Sequence (P01116 with tags, fused parts or gaps isoform P01116-2 G12D): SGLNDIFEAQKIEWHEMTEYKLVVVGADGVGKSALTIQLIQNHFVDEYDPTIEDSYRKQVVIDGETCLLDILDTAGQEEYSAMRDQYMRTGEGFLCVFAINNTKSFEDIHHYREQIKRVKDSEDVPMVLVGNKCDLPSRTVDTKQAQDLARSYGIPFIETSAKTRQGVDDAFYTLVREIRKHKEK
- test_summary: Protein-protein interaction (PPI) HTRF assay KRAS G12D/RAF1
- Type: binding
- particulars: Table 2
measure: IC50

>>> reported_value("Oc1ccc2c(c1)-c1ccccc1C21CN(c2cc(N3C[C@H]4CC[C@@H](C3)N4)nc(OC[C@@]34CCCN3C[C@H](F)C4)n2)C1 [Compound 1]")
"10 to 100 µM"
>>> reported_value("CN(C)C(=O)c1nn2c(c1Cl)CN(c1nc(OC[C@@]34CCCN3C[C@H](F)C4)nc(N3CC4(CCCc5sc(N)c(C#N)c54)C3)c1C#N)CCC2 [Compound 3]")
"10 to 100 µM"
>>> reported_value("CN(C)C(=O)c1nn2c(c1Cl)CN(c1nc(OC[C@@]34CCCN3C[C@H](F)C4)nc(N3CC4(CCc5sc(N)c(C#N)c54)C3)c1C#N)CCC2 [Compound 2]")
"0.1 to 1 µM"

* * *

- Tested on: AGS cells (KRAS G12D), phospho-ERK
- test_summary: pERK In Cell Western (ICW) assay (Method B), AGS cells
- Type: cell-based
- particulars: Homo sapiens, Table 4, pERK, 3 hours, read-out: ICW-AGS
Let's look at some compounds and their measured IC50.
measure: IC50

>>> reported_value("Cn1c(-c2nn3c(c2Cl)CN(c2nc(OC[C@@]45CCCN4C[C@H](F)C5)nc(N4CC5(CCc6sc(N)c(C#N)c65)C4)c2C#N)CCC3)nc2c(F)cccc21")
"100 to 1000 nM"
>>> reported_value("CO[C@H]1CN(CC2(COc3nc(N4C[C@H]5CC[C@@H](C4)N5)c(C#N)c(N4CC5(CCc6sc(N)c(C#N)c65)C4)n3)CC2)C[C@@H]1F")
"100 to 1000 nM"
>>> reported_value("CN(C)C(=O)c1cc2n(n1)CCCN(c1nc(OC[C@@]34CCCN3C[C@H](F)C4)nc(N3CC4(CCc5sc(N)c(C#N)c54)C3)c1C#N)C2")
"10 to 100 nM"

* * *

- target_of_assay: GST-tagged KRAS-G12D (2-169) (Homo sapiens, UniProt P01116, G12D)
- Construct: GST-tagged KRAS-G12D (2-169, Reaction Biology, MSC-11-539); purchased Reaction Biology MSC-11-539 (KRAS G12D); MSC-11-502 (SOS1cat)
- Sequence (P01116 2-169 isoform P01116-2 G12D): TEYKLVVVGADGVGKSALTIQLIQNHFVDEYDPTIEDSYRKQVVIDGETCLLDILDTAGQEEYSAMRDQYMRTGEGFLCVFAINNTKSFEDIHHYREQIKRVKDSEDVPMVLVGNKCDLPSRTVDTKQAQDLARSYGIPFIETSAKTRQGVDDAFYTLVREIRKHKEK
- test_summary: Nucleotide exchange assay (NEA), SOS-mediated, HTRF, KRAS G12D
- Type: biochemical
- particulars: Table 4; IC50 extracted at 30 min
- Text: This activity is tightly regulated by GTPase activating proteins (GAPs) and guanine nucleotide exchange factors (GEFs). […] Homogenous time resolved fluorescence (HTRF) was used to detect SOS-mediated binding of a fluorescent GTP analog, GTP-DY-647P1 (Jena Biosciences NU-820-647P1) to GST-tagged KRAS-G12D (2-169, Reaction Biology, MSC-11-539) or to GST-tagged KRAS-G12V (2-169, Reaction Biology, MSC-11-540). […]
pIC50: −log10 of the molar value.
measure: pIC50

>>> reported_value("Oc1ccc2c(c1)-c1ccccc1C21CN(c2cc(N3C[C@H]4CC[C@@H](C3)N4)nc(OC[C@@]34CCCN3C[C@H](F)C4)n2)C1 [Compound 1]")
"6.00 to 7.00"
>>> reported_value("N#Cc1c(N2C[C@H]3CC[C@@H](C2)[C@@H]3N)nc(OCC2(CN3CCOCC3)CC2)nc1N1CC2(CCc3sc(N)c(C#N)c32)C1 [Compound 61]")
"7.00 to 8.00"
>>> reported_value("CN1CCc2c(cccc2Oc2nc(N3C[C@H]4CC[C@@H](C3)N4)c(C#N)c(N3CC4(CCc5sc(N)c(C#N)c54)C3)n2)C1 [Compound 57]")
"4.70 to 6.00"
>>> reported_value("N#Cc1c(N2C[C@H]3CC[C@@H](C2)N3)nc(OCC2(CN3CC[S+]([O-])CC3)CC2)nc1N1CC2(CCc3sc(N)c(C#N)c32)C1 [Compound 71]")
"> 8.00"
>>> reported_value("C[C@@]1(O)CCCN(c2nc(OC[C@@]34CCCN3C[C@H](F)C4)nc(N3CC4(CCc5sc(N)c(C#N)c54)C3)c2C#N)C1 [Compound 27]")
"7.00 to 8.00"
>>> reported_value("N#Cc1c(N2CCCC(O)CC2)nc(OC[C@@]23CCCN2C[C@H](F)C3)nc1N1CC2(CCc3sc(N)c(C#N)c32)C1 (stereo partly drawn) [Compound 40]")
"7.00 to 8.00"

* * *

- target_of_assay: KRAS G12V/RAF1 (Homo sapiens, UniProt P01116, G12V)
- Construct: His6-MBP (N, cleaved yes)
- Sequence (P01116 with tags, fused parts or gaps isoform P01116-2 G12V): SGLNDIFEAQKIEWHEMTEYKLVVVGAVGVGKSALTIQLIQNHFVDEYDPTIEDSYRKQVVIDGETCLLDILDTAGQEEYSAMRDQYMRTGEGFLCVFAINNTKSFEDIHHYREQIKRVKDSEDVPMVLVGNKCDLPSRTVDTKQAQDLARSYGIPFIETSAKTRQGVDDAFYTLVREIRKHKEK
- test_summary: Protein-protein interaction (PPI) HTRF assay KRAS G12V/RAF1
- particulars: Table 3; KRASG12V/RAF1
pIC50: −log10 of the molar value.
measure: pIC50

>>> reported_value("CN(C)C(=O)c1nn2c(c1Cl)CN(c1nc(OC[C@@]34CCCN3C[C@H](F)C4)nc(N3CC4(CCc5sc(N)c(C#N)c54)C3)c1C#N)CCC2 [Compound 2]")
"5.00 to 6.00"
>>> reported_value("CN(C)C(=O)c1nn2c(c1Cl)CN(c1nc(OC[C@@]34CCCN3C[C@H](F)C4)nc(N3CC4(CCCc5sc(N)c(C#N)c54)C3)c1C#N)CCC2 [Compound 3]")
"4.00 to 5.00"

* * *

- Tested on: AGS cells (KRAS G12D), phospho-ERK
- test_summary: pERK In Cell Western (ICW) assay (Method B), AGS cells
- Assay type: cell-based
- particulars: Homo sapiens, Table 4, pERK, 3 hours, read-out: ICW-AGS
Let's look at some compounds and their measured IC50.
measure: IC50

>>> reported_value("N#Cc1c(N2C[C@H]3CC[C@@H](C2)N3)nc(OCC2(CN3CCOCC3)CC2)nc1N1CC2(CCCCc3sc(N)c(C#N)c32)C1 [Compound 70]")
"0.01 to 0.1 µM"
>>> reported_value("CN(C)C(=O)c1nn2c(c1Cl)CN(c1nc(OCC3(CN4CCOCC4)CC3)nc(N3CC4(CCc5sc(N)c(C#N)c54)C3)c1C#N)CCC2 [Compound 5]")
"0.01 to 0.1 µM"
>>> reported_value("N#Cc1c(N2CCCCCC2)nc(OC[C@@]23CCCN2C[C@H](F)C3)nc1N1CC2(CCc3sc(N)c(C#N)c32)C1 [Compound 19]")
"1 to 10 µM"
>>> reported_value("N#Cc1c(N2C[C@H]3CC[C@@H](C2)N3)nc(OCC2(CN3CCOCC3)CC2)nc1N1CC2(C=CCc3sc(N)c(C#N)c32)C1 [Compound 86]")
"0.01 to 0.1 µM"
>>> reported_value("CN(C)C1(COc2nc(N3C[C@H]4CC[C@@H](C3)N4)c(C#N)c(N3CC4(CCc5sc(N)c(C#N)c54)C3)n2)CC1 [Compound 47]")
"0.1 to 1 µM"
>>> reported_value("Cc1nc(-c2nn3c(c2Cl)CN(c2nc(OC[C@@]45CCCN4C[C@H](F)C5)nc(N4CC5(CCc6sc(N)c(C#N)c65)C4)c2C#N)CCC3)n(C)n1 [Compound 85]")
"0.1 to 1 µM"

* * *

- Tested on: AGS cells (KRAS G12D), phospho-ERK
- test_summary: pERK In Cell Western (ICW) assay (Method B), AGS cells
- Assay type: cell-based
- particulars: Homo sapiens, Table 4, pERK, 3 hours, read-out: ICW-AGS
measure: IC50

>>> reported_value("N#Cc1c(N2C[C@H]3CC[C@@H](C2)N3)nc(OCc2ccn[nH]2)nc1N1CC2(CCc3sc(N)c(C#N)c32)C1 [Compound 79]")
"10 to 100 nM"
>>> reported_value("Cn1c(-c2nn3c(c2Cl)CN(c2nc(OC[C@@]45CCCN4C[C@H](F)C5)nc(N4CC5(CCc6sc(N)c(C#N)c65)C4)c2C#N)CCC3)nc2ccccc21 [Compound 30]")
"100 to 1000 nM"
>>> reported_value("CN(C)C(=O)c1nn2c(c1Cl)CN(c1nc(OC[C@@]34CCCN3C[C@H](F)C4)nc(N3CC4(CCc5sc(N)c(C#N)c54)C3)c1C#N)CCC2 [Compound 2]")
"10 to 100 nM"
>>> reported_value("N#Cc1c(N)sc2c1C1(CC2)CN(c2nc(OCC3(CN4CCOCC4)CC3)nc(N3C[C@H]4CC[C@@H](C3)N4)c2F)C1 [Compound 22]")
"10 to 100 nM"
>>> reported_value("CS(=O)(=O)c1cc2n(n1)CCCN(c1nc(OC[C@@]34CCCN3C[C@H](F)C4)nc(N3CC4(CCc5sc(N)c(C#N)c54)C3)c1C#N)C2 [Compound 21]")
"100 to 1000 nM"
>>> reported_value("Cc1noc(-c2cc3n(n2)CCCN(c2nc(OC[C@@]45CCCN4C[C@H](F)C5)nc(N4CC5(CCc6sc(N)c(C#N)c65)C4)c2C#N)C3)n1 [Compound 16]")
"100 to 1000 nM"
